target: Human GGT1 (hGGT) (Homo sapiens, UniProt P19440); assay: L-GpNA Transpeptidation Assay with GlyGly as acceptor; type: biochemical; parameters: lacking the transmembrane domain; made in house; host or cells: Pichia pastoris; conditions: weaker than Compound 16
Sequence (P19440 381-569 limits assumed): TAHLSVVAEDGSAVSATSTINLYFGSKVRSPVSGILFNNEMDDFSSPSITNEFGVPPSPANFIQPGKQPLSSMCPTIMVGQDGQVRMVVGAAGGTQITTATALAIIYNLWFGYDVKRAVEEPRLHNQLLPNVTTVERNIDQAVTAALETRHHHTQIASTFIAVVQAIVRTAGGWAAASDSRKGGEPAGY
Sequence (P19440 27-380 limits assumed): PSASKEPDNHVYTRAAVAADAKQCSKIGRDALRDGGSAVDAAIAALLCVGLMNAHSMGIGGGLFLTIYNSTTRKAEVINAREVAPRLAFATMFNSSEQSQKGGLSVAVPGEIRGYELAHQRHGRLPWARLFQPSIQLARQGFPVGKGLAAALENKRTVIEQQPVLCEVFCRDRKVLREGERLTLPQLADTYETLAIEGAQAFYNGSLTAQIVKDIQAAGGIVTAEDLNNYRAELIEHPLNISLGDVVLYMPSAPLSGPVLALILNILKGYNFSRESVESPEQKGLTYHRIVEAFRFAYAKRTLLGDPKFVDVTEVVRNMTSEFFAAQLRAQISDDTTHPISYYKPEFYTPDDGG
parameter: fold change in L-GpNA Kii (transpeptidation) relative to Compound 16 (fold)

>  <molecule>
O=[N+]([O-])c1ccc(S(=O)(=O)Nc2nnc(Cc3cccc(Cl)c3)s2)cc1 [Compound 15]

>  <target>
Human GGT1 (hGGT) (Homo sapiens, UniProt P19440)

>  <test.value>
2

$$$$
>  <molecule>
Cc1cccc(Cc2nnc(NS(=O)(=O)c3ccc([N+](=O)[O-])cc3)s2)c1 [Compound 18]

>  <target>
Human GGT1 (hGGT) (Homo sapiens, UniProt P19440)

>  <test.value>
2

$$$$
